FYI, the data here is from PubChem BioAssay (NCI).

System: HCT-15 colon
ASSAY NOTES: NCI tumour cell line growth inhibition, 48 h
Where a SMILES comes first, the peptide text is derived from it. [ ]: non-standard residue; d: D form. The star is where a group is joined. Phe(4-NO2) = N[CH](Cc1ccc([N+](=O)[O-])cc1)C(=O)O; Boc = CC(C)(C)OC(=O)*; OtBu = CC(C)(C)O*
RECORDED METRIC: TGI

| COMPOUND | EXPERIMENTAL TARGET | TEST VALUE |
| --- | --- | --- |
| CCCCCCCCC(=O)NCCCNCCCNC(=O)CCCCCCCC | HCT-15 colon | 28.2 µM |
| COC(=O)C(Cc1ccc([N+](=O)[O-])cc1)NC(=O)C(CC(=O)OC(C)(C)C)NC(=O)OC(C)(C)C (stereo not drawn) (Boc-Asp(OtBu)-[Phe(4-NO2)]-OMe; configuration not given here) | HCT-15 colon | > 100 µM |
| CCC1(N2C(=O)c3c(F)c(F)c(F)c(F)c3C2=O)C(=O)NC(=O)N(c2ccccc2)C1=O (stereo not drawn) | HCT-15 colon | 7.14 µM |
| O=[N+]([O-])O.[NH-]C1CCCCC1[NH-].[NH-]C1CCCCC1[NH-].[NH-]C1CCCCC1[NH-].[OH-].[OH-].[OH-].[Pt+4].[Pt+4].[Pt+4] (stereo not drawn) | HCT-15 colon | > 43.5 µM |
| CCCCCCCCCCCCCCCC(=O)OCC1OC(n2ccc(N)nc2=O)C(O)C1O (stereo not drawn) | HCT-15 colon | > 100 µM |
| CC(C)n1nc(C#Cc2cccc(NC(=O)c3cccc(C(F)(F)F)c3)c2)c2c(N)ncnc21 | HCT-15 colon | > 100 µM |
| OCc1ccccc1OC1OC(CO)C(O)C(O)C1O (stereo not drawn) | HCT-15 colon | > 100 µM |
| C#Cc1cccc(Nc2ncnc3ccc(-c4cncc(NS(C)(=O)=O)c4)cc23)c1 | HCT-15 colon | 16.7 µM |

====

System: HOP-18 NSCLC
ASSAY NOTES: NCI tumour cell line growth inhibition, 48 h
RECORDED METRIC: TGI

| MOLECULE | TEST VALUE |
| --- | --- |
| O=C1c2cccc3cccc(c23)C(=O)N1CCCN1CCN(CCCN2C(=O)c3cccc4cccc(c34)C2=O)CC1 | > 100 µM |
| CCOC(=O)NNC(=O)NC12CC3CC(CC(C3)C1)C2 | > 100 µM |
| CSc1nc2c(ncn2C2OCC(O)C(O)C2O)c(=O)[nH]1 (stereo unspecified) | > 100 µM |
| O=C1/C(=C/c2ccccc2)CN(C(=O)OCC(Cl)(Cl)Cl)C/C1=C\c1ccccc1 | 9.82 µM |
| CC[C@@]1(O)C(=O)OCc2c1cc1n(c2=O)Cc2cc3c(NC(C)=O)c(O)ccc3nc2-1 | > 100 µM |
| CCCCCCCCC(=O)NCCCNCCCNC(=O)CCCCCCCC | 26.6 µM |

====

Consider the following molecules and their measured TGI readings.
Test system: SK-MEL-28 melanoma
ASSAY NOTES: NCI tumour cell line growth inhibition, 48 h

| MOLECULE | COMPARISON SIGN | TGI, µM |
| --- | --- | --- |
| CC1SC2(CCCCC2)N(NC(=O)c2[nH]c3ccc(F)cc3c2-c2ccccc2)C1=O (stereo unspecified) | > | 100 |
| CC(C)n1nc(C#Cc2cccc(NC(=O)c3cccc(C(F)(F)F)c3)c2)c2c(N)ncnc21 | = | 6.82 |
| CN1c2ccccc2C(=O)Nc2cnc(Cl)nc21 | > | 100 |
| O=c1c2cc(F)ccc2sc2c(NCCCN3CCCC3)nc3ccccc3c12 | = | 3.85 |
| O=[N+]([O-])c1cccc(-c2ncc(-c3ccc(Cl)cc3Cl)[nH]2)c1 | = | 3.72 |
| Cc1cccc(CC(C)(C)C)c1NC(=O)C(=O)C(C(=O)c1ccc2ccccc2c1)C1OC(=O)c2ccccc21 (stereo unspecified) | = | 18.8 |
| CC(=O)Nc1ccc(-n2cnc3cc(-c4ccc(OCCN5CCCCC5)cc4)ccc32)cc1 | = | 9.06 |
| COc1cc(/C=C2\C[C@H]3[C@@H]4CC=C5C[C@@H](N6CCCC6)CC[C@]5(C)[C@H]4CC[C@]3(C)[C@H]2OC(C)=O)cc(OC)c1OC | = | 34.1 |
| COc1cc(C(=O)N/N=C/c2cccc([N+](=O)[O-])c2)cc(OC)c1OC | > | 100 |
| Nc1ncnc2c1ncn2Cc1ccc(C23CC4CC(CC(C4)C2)C3)c(O)c1 | > | 100 |
| O=C(O)CNC(=O)c1cccc2c(=O)c3ccccc3[nH]c12 | > | 100 |
| CCNC(=O)Oc1ccc(/C(=C(\C)c2ccc(Cl)cc2)c2ccc(OCCN3CCCCC3)cc2)cc1 | = | 3.73 |
| COc1ccccc1OC/C(N=Cc1ccncc1)=N/NC(=O)c1ccncc1 | > | 100 |
| COC1(OC)N=C(N)C2(C#N)/C(=N/N(C)C)CC(C)C12C#N (stereo unspecified) | > | 100 |
| C/C(=N\NC(=S)N1CCC(C2CCN(C(=S)N/N=C(\C)c3ccccn3)CC2)CC1)c1ccccn1 | > | 100 |
| Clc1ncc(C(Cl)(Cl)Cl)nc1-c1ccccc1 | = | 60.6 |
| CCOc1cccnc1/C=N/NC(N)=S | > | 100 |
| COc1ccc([C@@]23CCC(=O)C[C@@H]2N(C)CC3)cc1OC | > | 100 |
| CN1C(=O)C23CC4=CC=CC(O)C4N2C(=O)C1(CO)SS3 (stereo unspecified) | = | 2.26 |
| COc1cc(CC(=O)c2ccc3c(c2)OCO3)cc(OC)c1OC | > | 100 |
| CN(C)CCNc1nc2ccccc2c2c1C(=O)c1ccccc1-2 | = | 2.84 |

====

System: SF-295 CNS
ASSAY NOTES: NCI tumour cell line growth inhibition, 48 h

| COMPOUND | QUANTITY UNIT | COMPARISON SIGN | TGI |
| --- | --- | --- | --- |
| CC(=O)Nc1ncc2c(n1)-c1ccccc1OC2 | µM | > | 100 |
| O=C1O/C(=C\c2ccc(O)cc2)C(c2ccc(O)c(Cl)c2)=C1Br | µM | = | 28.9 |
| C/C(=C/CC[C@](C)(OC1OC(CO)C(O)C(O)C1O)[C@H]1CC[C@]2(C)[C@@H]1CC[C@@H]1[C@@]3(C)CC[C@H](O)C(C)(C)[C@@H]3C[C@H](O)[C@]12C)CO (some centres undefined) | µM | = | 35.1 |
| CCOC(=O)NNC(=O)NC12CC3CC(CC(C3)C1)C2 | µM | > | 100 |
| COc1cc(/C=C\c2cccnc2Nc2ccccc2)cc(OC)c1OC | µM | = | 35.9 |
| CC(C)(C)NCCC(O)c1cc(C(F)(F)F)nc2c(C(F)(F)F)cccc12 (centres undefined) | µM | = | 22.6 |
| COc1ccc(C=O)cc1Oc1ccc(C[C@H]2c3c(cc(OC)c4c3Oc3cc5c(cc3O4)CCN(C)C5=O)CCN2C)cc1 | µM | = | 16.3 |
| O=c1c2cc(F)ccc2sc2c(NCCCN3CCCC3)nc3ccccc3c12 | µM | = | 4.39 |
| COc1ccc(S(=O)(=O)NCCNc2nccc(-c3c(-c4ccccc4)nc4sccn34)n2)cc1 | µM | > | 100 |

====

System: CAKI-1 renal
ASSAY NOTES: NCI tumour cell line growth inhibition, 48 h; in the data active means GI50 below about 0.43 µM; inactive means the rest
Classes used: 1 (active), -1 (inactive)

| COMPOUND | CATEGORY |
| --- | --- |
| C[C@]12CC[C@@H]3c4ccc(O)cc4CC[C@H]3[C@@H]1CC[C@@H]2NS(=O)(=O)c1ccc(-c2ccccc2)cc1 | -1 |
| COc1ccc(N(Cc2cc(OC)c(OC)c(OC)c2)C2OC(=O)c3ccccc32)cc1 (configuration not stated) | -1 |
| COc1ccc(S(=O)(=O)NCCNc2nccc(-c3c(-c4ccccc4)nc4sccn34)n2)cc1 | -1 |
| O=[N+]([O-])O.[NH-]C1CCCCC1[NH-].[NH-]C1CCCCC1[NH-].[NH-]C1CCCCC1[NH-].[OH-].[OH-].[OH-].[Pt+4].[Pt+4].[Pt+4] (configuration not stated) | 1 |
| CC(=O)N[C@@H]1CCC[C@H](C(=O)Nc2cc(-c3cnn4c3CC(C)(C)C4)c(Cl)cn2)C1 | 1 |
| Nc1ncnc2c1ncn2Cc1ccc(C23CC4CC(CC(C4)C2)C3)c(O)c1 | -1 |
| O=[N+]([O-])c1cccc(-c2ncc(-c3ccc(Cl)cc3Cl)[nH]2)c1 | -1 |

====

Consider the following molecules and their measured TGI readings.
System: SN12C renal
ASSAY NOTES: NCI tumour cell line growth inhibition, 48 h
RECORDED METRIC: TGI

| MOLECULE | RECORDED METRIC | TEST VALUE |
| --- | --- | --- |
| CCCCCCCCC(=O)NCCCNCCCNC(=O)CCCCCCCC | TGI | 16.3 µM |
| Cc1c(-c2coc(-c3ccc(Cl)cc3)n2)c(=O)n(-c2ccccc2)n1C | TGI | > 100 µM |
| COc1ccc(N=C2NN=C(c3c[nH]c4ccccc34)CS2)cc1OC | TGI | > 100 µM |
| CC(C)(C)NCCC(O)c1cc(C(F)(F)F)nc2c(C(F)(F)F)cccc12 (stereo unspecified) | TGI | 15.5 µM |
| CCC1(O)CN(CCOC)[C@H]2C[C@@H]1C(=O)c1[nH]c3ccccc3c12 (stereo partly specified) | TGI | > 100 µM |
| CCCCCCN(CCCCCC)CC(O)c1cccc2ccc(Cl)cc12 (stereo unspecified) | TGI | 23.6 µM |
| CC(=O)N[C@@H]1CCC[C@H](C(=O)Nc2cc(-c3cnn4c3CC(C)(C)C4)c(Cl)cn2)C1 | TGI | > 100 µM |
| COC1(OC)/C(=C(\N)C=O)NC(C)(C)N1O | TGI | > 100 µM |
| Cn1cc(-c2nn3cc(-c4cccs4)nc3s2)c2cc(F)ccc21 | TGI | > 100 µM |
| COC1(OC)N=C(N)C2(C#N)/C(=N/N(C)C)CC(C)C12C#N (stereo unspecified) | TGI | > 100 µM |
| C=C(C)[C@@H]1CCC[C@]2(C(=O)O)CC[C@]3(C)[C@@H](CC[C@@H]4[C@@]5(C)C/C(=C/c6ccncc6)C(=O)C(C)(C)[C@@H]5CC[C@]43C)[C@@H]12 | TGI | > 100 µM |
| COc1cc(C(=O)N/N=C/c2cccc([N+](=O)[O-])c2)cc(OC)c1OC | TGI | > 100 µM |
| CCCCCCCCCCCCCCCC(=O)OCC1OC(n2ccc(N)nc2=O)C(O)C1O (stereo unspecified) | TGI | > 100 µM |
| COCCCN1C(=O)C2c3[nH]c4ccccc4c3C3CCC(C(C)(C)C)CC3C2C1=O (stereo unspecified) | TGI | 50 µM |
| CN(C)CCn1c(=O)c2ccc(NCCNCCO)c3c(=O)c4cc(O)ccc4n(c1=O)c23 | TGI | 5.15 µM |
| COc1ccc(S(=O)(=O)NCCNc2nccc(-c3c(-c4ccccc4)nc4sccn34)n2)cc1 | TGI | > 100 µM |
| c1ccc(COc2ncccc2C2SCCCS2)cc1 | TGI | > 100 µM |
| CCN(CC)c1ccc(C(=C2C=CC(=[N+](CC)CC)C=C2)c2ccccc2)cc1 | TGI | 0.0878 µM |
| CC1(C)CC2(C)OC2C2(C1)N=NC(=Nc1ccccc1)O2 (stereo unspecified) | TGI | 8.33 µM |
| O=c1c2cc(F)ccc2sc2c(NCCCN3CCCC3)nc3ccccc3c12 | TGI | 4.6 µM |
| O=C(O)c1ccccc1-c1ccccc1C(=O)c1ccccc1 | TGI | > 100 µM |
